# Test system: rodent lifetime carcinogenesis bioassay, tumor incidence TD50
# test protocol: carcinogenic potency in animals, long-term in vivo studies, CPDB compilation (AID 1745844)
# experimental setup: rat; strain Fischer 344; females; in feed; site: thyroid gland; lesion: follicular-cell adenoma + follicular-cell carcinoma; dosed 59 weeks; study length 104 weeks
measurement type: TD50

Query (compound): CN(C)c1ccc(Cc2ccc(N(C)C)cc2)cc1 ; field requested: TD50 16.4 mg/kg/day

* * *

# Tested on: rodent lifetime carcinogenesis bioassay, tumor incidence TD50
# test protocol: carcinogenic potency in animals, long-term in vivo studies, CPDB compilation (AID 1745844)
# experimental setup: mouse; strain Charles River CD1; females; inhaled; site: lung; lesion: alveolar/bronchiolar adenoma; dosed 67 weeks; study length 74 weeks
measurement type: TD50

So what's the measured TD50 for this one? C=CF 54.6 mg/kg/day

* * *

# Tested on: rodent lifetime carcinogenesis bioassay, tumor incidence TD50
# test protocol: carcinogenic potency in animals, long-term in vivo studies, CPDB compilation (AID 1745844)
# experimental setup: rat; strain ACI/n; males; in feed; site: cecum; lesion: adenocarcinoma; dosed 68 weeks; study length 68 weeks
measurement type: TD50

Form field - read-out: TD50; system: rodent lifetime carcinogenesis bioassay, tumor incidence TD50; submitted item: O=C1c2ccccc2C(=O)c2c(O)cccc21 619 mg/kg/day

* * *

# Tested on: rodent lifetime carcinogenesis bioassay, tumor incidence TD50
# test protocol: carcinogenic potency in animals, long-term in vivo studies, CPDB compilation (AID 1745844)
# experimental setup: rat; strain F344/DuCrj; females; in drinking water; site: uterus, endometrium; lesion: sarcoma; dosed 103 weeks; study length 111 weeks
measurement type: TD50 (mg/kg/day)
Field: numeric (mg/kg/day). Do not append units.

Give recorded TD50 with rodent lifetime carcinogenesis bioassay, tumor incidence TD50 for the following molecule: CCN(N=O)C(N)=O 2.56

* * *

# Tested on: rodent lifetime carcinogenesis bioassay, tumor incidence TD50
# test protocol: carcinogenic potency in animals, long-term in vivo studies, CPDB compilation (AID 1745844)
# experimental setup: rat; strain Fischer 344; males; in feed; site: liver; lesion: cholangioma; dosed 76 weeks; study length 76 weeks
measurement type: TD50 (mg/kg/day)
Numbers only; they are read as mg/kg/day.

I am curious: what TD50 value has been reported for O=[N+]([O-])OCC(CO[N+](=O)[O-])O[N+](=O)[O-] ? 211

* * *

The reader will find reported TD50 values listed item by item below.
# System: rodent lifetime carcinogenesis bioassay, tumor incidence TD50
# test protocol: carcinogenic potency in animals, long-term in vivo studies, CPDB compilation (AID 1745844)
# experimental setup: mouse; strain B6C3F1; females; by gavage; site: liver; lesion: hepatocellular adenoma + hepatocellular carcinoma + neoplastic nodule; dosed 78 weeks; study length 92 weeks
Number in mg/kg/day, nothing else.

{"columns": ["structure smiles string", "output unit", "TD50"],
 "data": [
  ["ClC(Cl)Cl", "mg/kg/day", 48]
]}

Pending compound:
For the compound ClC(Cl)C(Cl)Cl , what TD50 is on record? 35.4

* * *

# Tested on: rodent lifetime carcinogenesis bioassay, tumor incidence TD50
# test protocol: carcinogenic potency in animals, long-term in vivo studies, CPDB compilation (AID 1745844)
# experimental setup: mouse; strain BALB/cStCrlfC3Hf/Nctr; females; in feed; site: pituitary gland; lesion: adenocarcinoma; dosed 132 weeks; study length 133 weeks
measurement type: TD50 (mg/kg/day)
The figure you give is taken to be in mg/kg/day; do not add the unit.

Item CC/C(=C(/CC)c1ccc(O)cc1)c1ccc(O)cc1 with rodent lifetime carcinogenesis bioassay, tumor incidence TD50 - TD50? 5.1

All figures here come from PubChem BioAssay AID1745844.
